Cited source: patent US20240270821A1

In this section, each of the substances is paired with its reported EC50.
measured_target: hGLP-1R (Homo sapiens, UniProt P43220)
Sequence (P43220 24-463): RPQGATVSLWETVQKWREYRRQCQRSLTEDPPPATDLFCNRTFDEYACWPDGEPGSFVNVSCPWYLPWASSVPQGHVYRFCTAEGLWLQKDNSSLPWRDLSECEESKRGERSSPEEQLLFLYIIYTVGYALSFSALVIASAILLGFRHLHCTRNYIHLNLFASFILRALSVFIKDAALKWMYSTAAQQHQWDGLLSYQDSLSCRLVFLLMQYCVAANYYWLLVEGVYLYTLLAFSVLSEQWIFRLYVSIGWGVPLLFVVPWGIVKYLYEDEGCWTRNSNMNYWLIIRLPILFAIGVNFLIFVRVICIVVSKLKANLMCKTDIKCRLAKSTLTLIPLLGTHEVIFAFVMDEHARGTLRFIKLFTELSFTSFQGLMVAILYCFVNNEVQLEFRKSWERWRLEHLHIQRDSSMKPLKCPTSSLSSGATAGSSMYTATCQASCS
experiment: Functional cAMP activity in the presence of 1% HSA
Format: cell-based
conditions: read-out: cAMP Rel EC50, hGLP-1R
Starred links: 1 amine or outer side, 2 acyl side, 3 side chain; linkers in the order of their positions; H or OH if unused. Non-standard residues stand in square brackets, D forms with d. Groups on a side chain read outwards from the residue. No end group written: not given here. *: point of attachment. C18 diacid = O=C(O)CCCCCCCCCCCCCCCCC(=O)*; αMePhe(2-F) = C[C@](N)(Cc1ccccc1F)C(=O)O; γGlu = O=C(O)[C@H](CCC(=O)[*:2])N[*:1]; αMeY = C[C@](N)(Cc1ccc(O)cc1)C(=O)O; 4Pal = N[C@@H](Cc1ccncc1)C(=O)O; αMeL = CC(C)C[C@](C)(N)C(=O)O; αMeS = C[C@](N)(CO)C(=O)O; Orn = NCCC[C@H](N)C(=O)O; AEEA = NCCOCCOCC(=O)O; Aib = CC(C)(N)C(=O)O
Write the answer as a number in nM, unit excluded.

Solved cases below.
Y[Aib]QGT[αMePhe(2-F)]TSD[4Pal][αMeS]I[αMeL]LD[Orn]K([γGlu-γGlu-C18 diacid])AQ[Aib][Orn]FI[dE][αMeY]LQEGGPSSGEPPPEGAEE-NH2 [Example 587]; 31.9
H-Y[Aib]QGTFTSDFS[Orn][αMeL]LDKK([AEEA-γGlu-C18 diacid])AQ[Aib]AFIEWLLEGGHSSGAPPPSGE-NH2 [Example 122]; 468

Here is another substance to look at.
input: # input substance: H-Y[Aib]QGTFTSDFS[Orn][αMeL]LDKK([AEEA-AEEA-γGlu-C18 diacid])AQ[Aib]AFIEYLLEGGPSSGAPPPSGE-NH2 [Example 107] ; wanted: its EC50
output: 1110

====

measured_target: hGIPR (Homo sapiens, UniProt P48546)
Sequence (P48546 22-466): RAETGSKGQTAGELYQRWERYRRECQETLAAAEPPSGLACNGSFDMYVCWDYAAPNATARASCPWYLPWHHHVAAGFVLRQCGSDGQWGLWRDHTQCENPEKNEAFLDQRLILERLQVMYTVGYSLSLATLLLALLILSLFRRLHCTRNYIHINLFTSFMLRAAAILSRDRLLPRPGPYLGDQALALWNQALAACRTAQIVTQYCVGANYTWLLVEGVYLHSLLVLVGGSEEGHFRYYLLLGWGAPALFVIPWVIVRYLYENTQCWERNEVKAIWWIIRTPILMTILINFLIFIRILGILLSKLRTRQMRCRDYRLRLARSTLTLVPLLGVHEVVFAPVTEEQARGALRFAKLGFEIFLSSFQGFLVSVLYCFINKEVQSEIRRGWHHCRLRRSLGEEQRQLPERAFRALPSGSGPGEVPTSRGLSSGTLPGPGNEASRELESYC
experiment: Functional cAMP activation in the presence of 0.1% casein (no HSA);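 further: intracellular cAMP rise after 30 min at 37 °C read by HTRF against a standard curve, scaled between buffer alone (0%) and top control ligand concentration (100%), four-parameter fit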
Assay type: cell-based
conditions: in the presence of 0.1% casein (no HSA); geometric mean; read-out: Relative cAMP EC50, hGIPR
Starred links: 1 amine or outer side, 2 acyl side, 3 side chain; linkers in the order of their positions; H or OH if unused. Non-standard residues stand in square brackets, D forms with d. Groups on a side chain read outwards from the residue. *: point of attachment. C20 diacid = O=C(O)CCCCCCCCCCCCCCCCCCC(=O)*; C18 diacid = O=C(O)CCCCCCCCCCCCCCCCC(=O)*; αMePhe(2-F) = C[C@](N)(Cc1ccccc1F)C(=O)O; γGlu = O=C(O)[C@H](CCC(=O)[*:2])N[*:1]; αMe4Pal = C[C@](N)(Cc1ccncc1)C(=O)O; αMeY = C[C@](N)(Cc1ccc(O)cc1)C(=O)O; 4Pal = N[C@@H](Cc1ccncc1)C(=O)O; αMeL = CC(C)C[C@](C)(N)C(=O)O; αMeS = C[C@](N)(CO)C(=O)O; Orn = NCCC[C@H](N)C(=O)O; AEEA = NCCOCCOCC(=O)O; Aib = CC(C)(N)C(=O)O
# if measured EC50 < 0.1 nM: t  # else: f

H-Y[Aib]QGTFTSDFS[Orn][αMeL]LDKK([AEEA-γGlu-C18 diacid])AQ[Aib]AFIEWLLEGGTSSGAPPPSGS-NH2 [Example 176]; f
H-Y[Aib]QGTFTSD[4Pal]S[Orn][αMeL]LD[Orn]K([γGlu-γGlu-C18 diacid])AQ[αMe4Pal]AFIE[αMe4Pal]LIE[Aib]GPSSGEPPPSGS-NH2 [Example 991]; f
H-Y[Aib]QGTFTSDFSK[αMeL]LDKK([AEEA-γGlu-C20 diacid])AQ[Aib]AFIEWLLAGGPSSGEPPPSGE-NH2 [Example 21]; f
H-Y[Aib]QGTFTSDFS[Orn][αMeL]LDKK([AEEA-AEEA-γGlu-C20 diacid])AQ[Aib]AFIEYLLE[Aib]GPSSGEPPPGEG-NH2 [Example 69]; f
H-Y[Aib]QGTFTSDFS[Orn][αMeL]LDKK([AEEA-γGlu-C18 diacid])AQ[Aib]AFIEYLLE[Aib]GPSSGAPPPSGS-NH2 [Example 74]; t

input: Is 0.1 nM strictly greater than the substance's reported EC50? substance: H-Y[Aib]QGTFTSD[4Pal]SQ[αMeL]LD[Orn]K([γGlu-γGlu-C18 diacid])AQ[αMe4Pal]AFIEYLIE[dA]GPSSGEPPPSGS-NH2 [Example 1019]
output: f

input: Please determine if H-Y[Aib]QGT[αMePhe(2-F)]TSD[4Pal][αMeS]I[αMeL]LD[Orn]K([AEEA-γGlu-γGlu-C18 diacid])AQ[αMe4Pal]EFI[dE][αMeY]LIEGGPSSGAPPPSGSE-NH2 [Example 1178] is below 0.1 nM in terms of EC50.
output: t

input: Identify whether the substance H-Y[Aib]QGTFTSDFSK[αMeL]LDKK([AEEA-γGlu-C20 diacid])AQ[Aib]AFIEWLIEGGPSSGAPPPSEG-NH2 [Example 40] records EC50 below 0.1 nM.
output: f

input: Lab note: confirm whether the reported EC50 for this substance is below 0.1 nM, equality not counting. substance: H-Y[Aib]QGTFTSDFSK[αMeL]LDKK([AEEA-γGlu-C20 diacid])AQ[Aib]AFIEYLLEGGPSSGAPPP[γGlu]GE-NH2 [Example 53]
output: f

input: Please determine if H-Y[Aib]QGTFTSD[4Pal]S[Orn][αMeL]LDKK([γGlu-γGlu-C18 diacid])AQ[αMe4Pal]AFIE[αMe4Pal]LIEGGPSSGAPPPSGS-NH2 [Example 952] is below 0.1 nM in terms of EC50.
output: f
